Known Inh (% of Ctl) 0.5 μM of a selection of molecules
# subjectOfTest: rat PGT (Rattus norvegicus (Rat))
# testDescription: [3H]PGE2 uptake inhibition in MDCK cells stably transfected with rat PGT (percent inhibition and IC50)
# Format: cell-based
# testParameters: 0.5 μM compound; inhibition of [3H]PGE2 uptake

Here are 4 molecules together with their reported answers.
Query string: What value of measured Inh (% of Ctl) 0.5 μM is listed for O=C(NCCOCCOCCNc1nc(Nc2ccc(O)cc2)nc(Nc2ccc(C(=O)NCc3cccc(F)c3)cc2)n1)c1ccccc1 ?
Result string: 64.6 % of Ctl

Query string: What do you get for O=C(NCCOCCOCCNc1nc(Nc2ccc(C(=O)NCc3ccc(F)cc3)cc2)nc(Nc2ccc(O)c(C(=O)O)c2)n1)c1ccccc1 ?
Result string: 59.8 % of Ctl

Query string: What do you get for CN(c1ccc(C(=O)NCc2ccccc2)cc1)c1nc(NCCOCCOCCNC(=O)c2ccccc2)nc(Nc2ccc(O)cc2)n1 ?
Result string: 85.4 % of Ctl

Query string: What do you get for CCCCCCNC(=O)c1ccc(Nc2nc(NCCOCCNC(=O)c3ccccc3)nc(Nc3ccc(O)cc3)n2)cc1 ?
Result string: 81.4 % of Ctl

Turning now to a further record.
Query string: What value of measured Inh (% of Ctl) 0.5 μM is listed for O=C(NCCOCCNc1nc(Nc2ccc(O)cc2)nc(Nc2ccc(C(=O)NCc3ccc(Cl)cc3)cc2)n1)c1ccccc1 ?
Result string: 6.7 % of Ctl
